experiment notes: growth suppression of yeast trafficking mutant, preliminary HTS, modulators of trafficking downstream of Golgi apparatus project, 1536-format plate, OD 615 nm (AID 637)
test parameters: yeast transport mutant growth, absorbance 615 nm, 18 h; active compounds read high

>  <compound>
COc1cc(OC)cc(-c2nc3nc(C)c(CCC(=O)O)c(C)n3n2)c1

>  <inhibition / %>
0.18

$$$$
>  <compound>
CCc1nnc(NC(=O)C2Cc3ccccc3CN2S(=O)(=O)c2cccs2)s1 (stereo unspecified)

>  <inhibition / %>
-3.28

$$$$
>  <compound>
O=C(COC(=O)Cc1cccc(C(F)(F)F)c1)NCC1CCCO1 (stereo unspecified)

>  <inhibition / %>
-4.36

$$$$
>  <compound>
O=C(CN1C(=O)CC(c2ccco2)Sc2ccccc21)Nc1ccc2c(c1)OCCO2 (stereo unspecified)

>  <inhibition / %>
-0.16

$$$$
>  <compound>
O=C(O)C1CCCCC1C(=O)Nc1ccccn1 (stereo unspecified)

>  <inhibition / %>
-4.73

$$$$
>  <compound>
CC(C)(C)C1=Nn2c(nnc2-c2n[nH]c3c2CCC3)SC1

>  <inhibition / %>
4.68

$$$$

====

experiment notes: HUVEC growth inhibition – cell-based, human, primary screen (AID 575);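 further: 100% = median of untreated cell wells with 0.1% DMSO on each plate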
test parameters: HUVEC proliferation, CellTiter-Glo luminescence, 72 h; at 10 µM; active compounds read low
assay metric: viability (%)

>  <compound>
CCOC(=O)Cc1csc(NC(=O)CSc2nnc(C3CC3)n2C)n1

>  <result number>
107

$$$$
>  <compound>
COCCn1c(CN(Cc2ccccc2)Cc2ccccc2)nc2c1c(=O)n(C)c(=O)n2C

>  <result number>
81.2

$$$$
>  <compound>
CN1CCN(CC#CCC(O)(c2ccccc2)C2CCCC2)CC1 (configuration not stated)

>  <result number>
102

$$$$
>  <compound>
CNC(=O)NCCN1CCCC1=O

>  <result number>
112

$$$$
>  <compound>
N#CCc1ccc(NC(=O)Nc2cccc(Cl)c2)cc1

>  <result number>
76.9

$$$$
>  <compound>
Cc1ccn2cc(CCNC(=O)CC(C)(C)C)nc2c1

>  <result number>
113

$$$$
>  <compound>
COC(=O)c1oc2ccc(OC)cc2c1N

>  <result number>
82.4

$$$$
>  <compound>
Cc1ccc2cc(C(c3nnnn3CC3CCCO3)N3CCc4ccccc4C3)c(=O)[nH]c2c1 (configuration not stated)

>  <result number>
105

$$$$
>  <compound>
CCN1CCN(c2c(Cl)cccc2NC(=O)c2ccc3c(c2)OCCO3)CC1

>  <result number>
95.2

$$$$
>  <compound>
Cn1c(NC(=O)c2cccc(Cn3cc(Cl)cn3)c2)nc2ccccc21

>  <result number>
72.4

$$$$
>  <compound>
Cc1cc(C)nc(SC2=CS(=O)(=O)c3ccccc32)n1

>  <result number>
73.5

$$$$
>  <compound>
CCOP(=O)(c1ccc(N(C)C)cc1)C(O)c1c(Cl)cccc1Cl (configuration not stated)

>  <result number>
97.4

$$$$

====

experiment notes: growth inhibitors of H69AR lung tumor, primary screen, human, duplicate replicates (AID 580);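 further: 100% = mean luminescence of untreated wells and 0% = no signal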
test parameters: H69AR lung tumor cells viability, ATP luminescence, 72 h; at 10 µM; active compounds read low

>  <compound>
O=C(Nc1ccccc1C(=O)N1CCOCC1)C1CCC(=O)N1C1CCCC1 (configuration not stated)

>  <viability / %>
95

$$$$
>  <compound>
Cc1cccc(NC(=O)CCCCCN2C(=O)c3ccccc3C2=O)n1

>  <viability / %>
105

$$$$
>  <compound>
COCCn1c(CN(Cc2ccccc2)Cc2ccccc2)nc2c1c(=O)n(C)c(=O)n2C

>  <viability / %>
81.2

$$$$
>  <compound>
Cc1ccc(NC(=O)CN(C)S(=O)(=O)c2cccc3nsnc23)cc1Cl

>  <viability / %>
84.5

$$$$
>  <compound>
CC(C)(C)c1nnc(NC(=O)C2CCN(c3ncccn3)CC2)s1

>  <viability / %>
101

$$$$
>  <compound>
CC(C)Oc1cccc(-c2cc(C(=O)N3CCN(S(C)(=O)=O)CC3)c3ccccc3n2)c1

>  <viability / %>
65.7

$$$$
>  <compound>
Cc1ccc2c(c1)C(N1CCCC1=O)CC(c1ccco1)N2 (configuration not stated)

>  <viability / %>
68.7

$$$$
>  <compound>
CCOc1ncccc1C(=O)Nc1ccc(Cl)cc1

>  <viability / %>
79.8

$$$$
>  <compound>
CN1[C@@H]2CC(OC(=O)[C@H](CO)c3ccccc3)C[C@H]1[C@@H]1O[C@@H]12 (some centres not stated)

>  <viability / %>
102

$$$$
>  <compound>
Cn1c(=O)c(NC(=O)c2ccccc2)c2n(c1=S)CCCCC2

>  <viability / %>
90.8

$$$$
>  <compound>
COc1ccc(C2C(C(=O)c3sc(C)nc3C)=C(O)C(=O)N2CCN(C)C)cc1 (configuration not stated)

>  <viability / %>
93.1

$$$$
>  <compound>
COC(=O)Nc1ccc(S(=O)(=O)N2CCCCCC2)cc1

>  <viability / %>
80.3

$$$$
>  <compound>
CCOC(=O)c1c(C)[nH]c(C(=O)Cn2c(=O)c3c(ncn3CC)n(Cc3ccccc3)c2=O)c1C

>  <viability / %>
85.2

$$$$
>  <compound>
O=C(N1CCN(c2ccccc2F)CC1)C12CC3CC(CC(C3)C1)C2

>  <viability / %>
89.9

$$$$
>  <compound>
NC(=O)c1cc(-c2ccccc2)nc(Oc2ccccc2)n1

>  <viability / %>
98.7

$$$$
>  <compound>
CCCCN(Cc1cc2cc(OC)ccc2[nH]c1=O)C(=O)c1ccccn1

>  <viability / %>
102

$$$$
>  <compound>
O=C(c1cccnc1)N1CCN(C(=O)c2ccccc2F)CC1

>  <viability / %>
97.2

$$$$
>  <compound>
CCN1CCN(c2nc(-c3cccnc3)nc3ccccc23)CC1

>  <viability / %>
88.6

$$$$
>  <compound>
Cn1c(=O)c(=O)n(C)c2cc(S(=O)(=O)Nc3ccc4c(c3)OCCO4)ccc21

>  <viability / %>
94.9

$$$$
>  <compound>
O=C1NC(c2cccnc2)C(C(=O)c2cccs2)C(O)(C(F)(F)F)N1 (configuration not stated)

>  <viability / %>
103

$$$$
>  <compound>
CCCCCc1c(C)nc(SCC(=O)O)[nH]c1=O

>  <viability / %>
111

$$$$
>  <compound>
CC(C)OC(=O)c1cccc(C(=O)O)n1

>  <viability / %>
96

$$$$
